# Tested on: HS 578T breast
# protocol-text: NCI-60 one-dose screen, 48 h (100 = growth as untreated, 0 = no growth, -100 = all killed)
# reported-conditions: 10 µM unless noted
# Procedure: Growth inhibition of the HS 578T human tumor cell line is measured as a screen for anti-cancer activity. Cells are grown in 96 well plates and exposed to the test compound for 48 hours. Compounds are tested at a single concentration, which is 10^-5 M for most compounds. The reported endpoint is percent growth (GI% or GIPRCNT), where numbers from 0 - 100% represent growth inhibition, and numbers from -100% - 0 represent cell death. For example, a value of 40 represents 60% growth inhibition. […]
This is part of a sample that, as a whole, favours compounds with a hit. Of some 83,000 tested, about 20% had one in any assay.
measurement-label: growth (%)
One number for each entry, in %.

# example entries with known answers
{"columns": ["molecule", "measurement-label", "reported-measurement"],
 "data": [
  ["O=c1c2c3c(sc2n2c(CCl)nnc2n1Cc1ccccc1)CCCC3", "growth", -36.1],
  ["COc1ccc(N(Cc2cc(OC)c(OC)c(OC)c2)C2OC(=O)c3ccccc32)cc1 (stereo not given)", "growth", 22.1],
  ["O=C1c2c[n+](Cc3ccccc3)ccc2-c2nc3ccccc3c3ccnc1c23", "growth", -18.8]
]}

I have 2 molecules here; please give me growth for each one.
1. c1ccc2sc(SCCCn3ccnc3)nc2c1
2. CN(C)CCCC(=O)Nc1ccc(Cn2nnc3c2C(=O)c2nnn(Cc4ccc(NC(=O)CCCN(C)C)cc4)c2C3=O)cc1

Response line:
102
112
